target: Broad substrate specificity ATP-binding cassette transporter ABCG2 (Homo sapiens, UniProt Q9UNQ0)
pIC50: −log10 of the molar value.
PROPERTY: pIC50

| MOLECULE | PROPERTY | EXPERIMENTAL_RESULT |
| --- | --- | --- |
| CS(=O)(=O)CCNCc1ccc(-c2ccc3ncnc(Nc4ccc(OCc5cccc(F)c5)c(Cl)c4)c3c2)o1 [LAPATINIB] | pIC50 | 5.49 |

* * *

biological target: Broad substrate specificity ATP-binding cassette transporter ABCG2 (Homo sapiens, UniProt Q9UNQ0); experiment: Inhibition of ABCG2 (unknown origin) expressed in human HEK293 cells assessed as reversal of BCRP-mediated mitoxantrone resistance and measured after 90 mins by FACSflow cytometry analysis; type: cell-based

| MOLECULE | IC50 |
| --- | --- |
| OCCN(CCO)c1nc(N2CCCCC2)c2nc(N(CCO)CCO)nc(N3CCCCC3)c2n1 | 6.4 µM |
| COc1cc(/C=C/c2ccc(OC)c(OC)c2)cc(OC)c1 [(E)-3,4,3',5'-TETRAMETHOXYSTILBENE] | 0.16 µM |
| COCCOC(=O)C1=C(C)NC(C)=C(C(=O)OC(C)C)C1c1cccc([N+](=O)[O-])c1 (centres undefined) | 13.7 µM |
| COC(=O)C1=C(C)NC(C)=C(C(=O)OCCN(C)Cc2ccccc2)C1c1cccc([N+](=O)[O-])c1 (centres undefined) | 4.8 µM |

* * *

Molecular target: Broad substrate specificity ATP-binding cassette transporter ABCG2 (Homo sapiens, UniProt Q9UNQ0)
Sequence (Q9UNQ0 whole entry): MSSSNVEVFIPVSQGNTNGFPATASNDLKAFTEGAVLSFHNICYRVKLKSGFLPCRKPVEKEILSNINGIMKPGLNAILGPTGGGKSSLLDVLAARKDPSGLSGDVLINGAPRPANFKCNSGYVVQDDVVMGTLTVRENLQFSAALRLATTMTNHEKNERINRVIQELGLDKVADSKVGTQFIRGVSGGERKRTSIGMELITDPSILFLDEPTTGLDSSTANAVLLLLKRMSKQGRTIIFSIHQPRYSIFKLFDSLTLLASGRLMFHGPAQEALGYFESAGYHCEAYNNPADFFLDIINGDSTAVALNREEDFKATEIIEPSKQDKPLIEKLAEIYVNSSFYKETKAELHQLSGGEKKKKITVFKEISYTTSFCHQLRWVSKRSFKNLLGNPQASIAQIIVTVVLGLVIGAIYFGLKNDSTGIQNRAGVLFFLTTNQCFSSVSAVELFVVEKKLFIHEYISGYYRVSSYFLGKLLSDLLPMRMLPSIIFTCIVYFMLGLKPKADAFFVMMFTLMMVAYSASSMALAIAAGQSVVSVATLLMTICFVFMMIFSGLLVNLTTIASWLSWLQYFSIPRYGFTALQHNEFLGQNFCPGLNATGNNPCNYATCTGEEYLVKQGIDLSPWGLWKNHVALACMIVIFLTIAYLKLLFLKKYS
Assay: Inhibition of ABCG2 (unknown origin) expressed in human S1M180 cells assessed as intracellular accumulation of rhodamine 123 using rhodamine 123 as substrate by flow cytometry
Assay type: cell-based
PROPERTY: IC50 (nM)

| SMILES_RECORD | PROPERTY | UNIT_INFO | EXPERIMENTAL_RESULT |
| --- | --- | --- | --- |
| COc1cc2c(Nc3ccc(Br)cc3F)ncnc2cc1OCC1CCN(C)CC1 | IC50 | nM | 200 |

Data credit: ChEMBL document CHEMBL5126555
